Consider the following compounds; for each one, report its Ki.
# SYSTEM_UNDER_TEST: Prostanoid DP1 receptor (Homo sapiens, UniProt Q13258)
# Construct: expressed in transfected cells; host or cells: CHO K1
# Sequence (Q13258 whole entry): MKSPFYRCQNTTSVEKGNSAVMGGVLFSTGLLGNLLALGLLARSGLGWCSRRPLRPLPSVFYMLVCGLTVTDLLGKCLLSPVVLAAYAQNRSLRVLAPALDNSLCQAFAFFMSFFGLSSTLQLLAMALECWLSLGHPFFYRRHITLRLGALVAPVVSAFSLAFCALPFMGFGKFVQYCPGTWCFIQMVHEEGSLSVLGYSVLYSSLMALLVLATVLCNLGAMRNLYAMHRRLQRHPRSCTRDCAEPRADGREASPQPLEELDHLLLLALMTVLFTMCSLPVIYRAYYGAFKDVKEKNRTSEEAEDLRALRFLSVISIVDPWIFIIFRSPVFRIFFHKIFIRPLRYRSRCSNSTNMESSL
# TEST_SUMMARY: Measurement of cAMP using TR-FRET LANCE assay: Prostanoid DP1
# Format: cell-based
# RUN_CONDITIONS: CHO cells expressing DP1 receptor, antagonism of PGD2 (EC80) cAMP response; read-out: pKi value (converted)
Structures can show the parent of a compound that is named as a salt.

Look over these answered cases.
CC(C)c1nc2c(n1Cc1ccc(Cl)cc1)C(CC(=O)O)CCC2 (single isomer, unassigned; isomer 2) [Example 17]: ≤ 10 nM
CC(C)c1nc2c(n1Cc1ccc(Cl)cc1)C(OCC(=O)O)CCC2 (stereo not shown) [Example 24, formic acid salt]: ≤ 100 nM
CC(C)c1nc2c(n1Cc1ccc(Cl)cc1Cl)C(CC(=O)O)CCC2 (stereo not shown): ≤ 100 nM
CC(C)c1nc2c(n1[C@H](C)c1ccccc1)C(CC(=O)O)CCC2 (stereo partly shown): ≤ 100 nM
CC(C)c1nc2c(n1Cc1ccc(Cl)c(Cl)c1)C(OCC(=O)O)CCCC2 (stereo not shown) [Example 34]: ≤ 10 nM
CC(C)c1nc2c(n1Cc1ccc(Cl)cc1)C(OCC(=O)O)CCC2 (single isomer, unassigned; isomer 2) [Example 26]: ≤ 10 nM

Hey, quick one: what's Ki for each of these?
1. CC(C)c1nc2c(n1Cc1ccc(Cl)c(Cl)c1)C(CC(=O)O)CCC2 (stereo not shown) [Example 19]
2. CC(C)c1nc2c(n1Cc1ccc(Cl)cc1)C(CC(=O)O)CCCC2 (stereo not shown)
3. CC(C)c1nc2c(n1Cc1ccc(Cl)c(Cl)c1)C(CC(=O)O)CC2 (single isomer, unassigned; isomer 1) [Example 10]
4. CC(C)c1nc2c(n1Cc1ccc(Cl)cc1)C(CC(=O)O)CCC2 (stereo not shown) [Example 27]
5. CC(C)c1nc2c(n1Cc1ccc(Cl)c(Cl)c1)C(CC(=O)O)CCCC2 (single isomer, unassigned; isomer 1) [Example 4]
6. CC(C)c1nc2c(n1Cc1ccc(Cl)cc1)C(CC(=O)O)CCC2 (single isomer, unassigned; isomer 2) [Example 32]
7. CC(C)c1nc2c(n1Cc1ccc(Cl)c(Cl)c1)C(CC(=O)O)CCCC2 (stereo not shown) [Example 3]
8. CC(C)c1nc2c(n1Cc1ccc(Cl)c(Cl)c1)C(CC(=O)O)CC2 (stereo not shown) [Example 9]

Ans:
1: ≤ 10 nM; 2: ≤ 10 nM; 3: ≤ 10 nM; 4: ≤ 100 nM; 5: ≤ 10 nM; 6: ≤ 10 nM; 7: ≤ 10 nM; 8: ≤ 10 nM

Hey, quick one: what's Ki for each of these?
1. CC(C)c1nc2c(n1Cc1ccc(Cl)c(Cl)c1)C(CC(=O)O)CCC2 (stereo not shown) [Example 29, trifluoroacetic acid salt]
2. CC(C)c1nc2c(n1Cc1ccc(Cl)cc1)C(OCC(=O)O)CCCC2 (stereo not shown)

Ans:
1: ≤ 10 nM; 2: ≤ 100 nM

* * *

Consider the following compounds; for each one, report its Ki.
# SYSTEM_UNDER_TEST: Prostanoid DP1 receptor (Homo sapiens, UniProt Q13258)
# Construct: expressed in transfected cells; host or cells: CHO K1
# TEST_SUMMARY: Measurement of cAMP using TR-FRET LANCE assay: Prostanoid DP1
# Assay type: cell-based
# RUN_CONDITIONS: CHO cells expressing DP1 receptor, antagonism of PGD2 (EC80) cAMP response; read-out: pKi value (converted)

Look over these answered cases.
CC(C)c1nc2c(n1Cc1ccc(Cl)c(Cl)c1)C(OCC(=O)O)CCCC2 (single isomer, unassigned; isomer 2) [Example 37]: ≤ 0.01 µM
CC(C)c1nc2c(n1Cc1ccc(Cl)cc1)C(CC(=O)O)CCC2 (centres unmarked) [Example 15]: ≤ 0.01 µM
O=C(O)CC1CCCc2nc(C3CCCC3)n(Cc3ccc(Cl)cc3)c21 (centres unmarked): ≤ 0.1 µM
CC(C)c1nc2c(n1Cc1ccc(Cl)cc1)C(CC(=O)O)CC2 (centres unmarked): ≤ 0.1 µM
CC(C)(C)c1nc2c(n1Cc1ccc(Cl)cc1)C(CC(=O)O)CC2 (centres unmarked): ≤ 0.1 µM
CC(C)c1nc2c(n1[C@H](C)c1ccc(Cl)cc1)C(CC(=O)O)CCC2 (some centres unmarked): ≤ 0.1 µM
CC(C)(C)c1nc2c(n1Cc1ccc(Cl)cc1)C(CC(=O)O)CCCC2 (centres unmarked): ≤ 0.01 µM

Looking up CC(C)c1nc2c(n1Cc1ccc(Cl)c(Cl)c1)C(OCC(=O)O)CCCC2 (single isomer, unassigned; isomer 1) [Example 36] , I see its Ki listed as ≤ 0.1 µM
